Data origin: the supplement of paper PMC6555819

PBM binding z-score values, listed per item
System: VDR homodimer (NR concentration 270 nM)
Assay: PBM binding z-score (relative to random genomic background probes); higher = stronger binding; sequences stand for … in GC…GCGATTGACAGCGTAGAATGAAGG
No unit in the answer, only the number.

# Sequence Content, PBM binding z-score
records = [
    ("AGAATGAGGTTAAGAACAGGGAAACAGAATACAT", 0.533),
]

Ask | If you can, please state the reported PBM binding z-score value of `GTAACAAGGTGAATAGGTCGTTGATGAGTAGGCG` .
Reply | 0.415

Ask | Try the sequence `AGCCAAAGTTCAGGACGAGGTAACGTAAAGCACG`
Reply | 1.79

Ask | Try the sequence `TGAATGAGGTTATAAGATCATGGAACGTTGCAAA`
Reply | 0.42

Ask | Try the sequence `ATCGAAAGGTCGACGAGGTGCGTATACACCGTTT`
Reply | 0.77

Ask | Try the sequence `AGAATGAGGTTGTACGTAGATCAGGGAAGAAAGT`
Reply | 0.389

* * *

PBM binding z-score values, listed per item
System: PPARg DBDmut:RXRa IVT, anti-PPARg (DBD mutation: PPARg1 K132A/R137A, NR concentration 270 nM, RXRa partner concentration 90 nM)
Assay: PBM binding z-score (relative to random genomic background probes); higher = stronger binding; sequences stand for … in GC…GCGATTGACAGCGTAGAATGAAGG
No unit in the answer, only the number.

These recorded examples may help you get a feel for the data.
# Sequence Content, PBM binding z-score
data = [
    ("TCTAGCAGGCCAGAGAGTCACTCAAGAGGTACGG", -1.43),
    ("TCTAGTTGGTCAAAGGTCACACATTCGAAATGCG", 1.17),
]

Ask | If you can, please state the reported PBM binding z-score value of `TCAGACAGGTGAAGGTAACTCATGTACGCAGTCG` .
Reply | 0.0578

Ask | Try the sequence `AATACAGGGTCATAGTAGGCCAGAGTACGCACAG`
Reply | 1.47

Ask | Try the sequence `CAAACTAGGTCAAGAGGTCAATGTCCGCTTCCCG`
Reply | 2.46

Ask | Try the sequence `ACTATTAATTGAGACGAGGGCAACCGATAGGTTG`
Reply | 1.03

Ask | Try the sequence `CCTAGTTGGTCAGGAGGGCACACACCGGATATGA`
Reply | -0.178

* * *

Test system: LXRa homodimer (NR concentration 270 nM)
Test: PBM binding z-score (relative to random genomic background probes); higher = stronger binding; sequences stand for … in GC…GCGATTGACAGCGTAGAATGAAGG
PBM binding z-score values, listed per item

These recorded examples may help you get a feel for the data.
# Sequence Content, PBM binding z-score
rows = [
    ("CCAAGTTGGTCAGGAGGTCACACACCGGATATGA", 1.69),
    ("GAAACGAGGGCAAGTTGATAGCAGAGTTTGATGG", -0.42),
    ("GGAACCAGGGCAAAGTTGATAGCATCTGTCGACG", -0.0781),
]

Ask | If you can, please state the reported PBM binding z-score value of `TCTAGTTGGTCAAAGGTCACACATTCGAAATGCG` .
Reply | 3.96

Ask | Try the sequence `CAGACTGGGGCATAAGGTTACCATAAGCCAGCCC`
Reply | -0.275

Ask | Try the sequence `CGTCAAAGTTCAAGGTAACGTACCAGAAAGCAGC`
Reply | 3.17

Ask | Try the sequence `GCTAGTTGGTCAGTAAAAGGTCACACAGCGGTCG`
Reply | 4.65

Ask | Try the sequence `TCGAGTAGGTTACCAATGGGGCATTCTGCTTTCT`
Reply | -0.471

Ask | Try the sequence `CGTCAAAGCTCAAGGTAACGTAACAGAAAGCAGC`
Reply | -0.372

Ask | Try the sequence `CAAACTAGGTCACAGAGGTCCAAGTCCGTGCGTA`
Reply | 0.422

Ask | Try the sequence `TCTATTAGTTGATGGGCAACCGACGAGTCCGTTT`
Reply | -0.0154

Ask | Try the sequence `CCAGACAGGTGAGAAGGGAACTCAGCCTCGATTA`
Reply | 0.111

Ask | Try the sequence `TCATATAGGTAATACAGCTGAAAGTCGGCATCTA`
Reply | -0.0282

Ask | Try the sequence `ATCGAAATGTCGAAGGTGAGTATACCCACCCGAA`
Reply | -0.285

Ask | Try the sequence `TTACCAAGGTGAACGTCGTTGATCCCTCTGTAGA`
Reply | -0.455

Ask | Try the sequence `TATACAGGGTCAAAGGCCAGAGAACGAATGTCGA`
Reply | 2.13

Ask | Try the sequence `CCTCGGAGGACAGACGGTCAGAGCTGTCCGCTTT`
Reply | -0.415

Ask | Try the sequence `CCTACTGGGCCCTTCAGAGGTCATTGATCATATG`
Reply | 5.02

Ask | Try the sequence `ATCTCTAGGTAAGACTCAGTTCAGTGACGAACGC`
Reply | 0.724

Ask | Try the sequence `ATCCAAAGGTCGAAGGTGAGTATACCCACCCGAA`
Reply | 0.34
